- protocol: Permeability across apical to basolateral side in human Caco2 cells
- Type: ADME, cell-based
- recorded conditions: Caco-2, read-out: permeability
Binning scheme for Papp A→B: low: < 50 nm/s; middle: ≥ 50 nm/s and < 100 nm/s; high: ≥ 100 nm/s

Q: Which bin should I file "CNC(=O)c1cnc(Nc2ccc(F)cn2)cc1Nc1ccc(F)c(F)c1OC" under?
Result: low

Q: Which bin should I file "CCS(=O)(=O)c1ccccc1Nc1cc(Nc2ccc(F)cn2)ncc1C(=O)NC" under?
Result: middle

Q: Which bin should I file "CNC(=O)c1cnc(Nc2ccc(C)nn2)cc1Nc1ccccc1S(C)(=O)=O" under?
Result: low

Q: Which bin should I file "[2H]C([2H])([2H])NC(=O)c1nnc(NC(=O)C2CC2)cc1Nc1ccccc1S(C)(=O)=O" under?
Result: middle

Q: Which bin should I file "CNC(=O)c1cnc(Nc2ccc(F)cn2)cc1Nc1ccccc1OC" under?
Result: high

Q: Which bin should I file "[2H]C([2H])([2H])NC(=O)c1nnc(Nc2ccc(F)cn2)cc1Nc1ccccc1S(C)(=O)=O" under?
Result: high

Q: Which bin should I file "CNC(=O)c1cnc(Nc2ccc(F)cn2)cc1Nc1ccccc1C(N)=O" under?
Result: low

Q: Which bin should I file "CNC(=O)c1cnc(Nc2ccc(OC)cn2)cc1Nc1ccccc1S(C)(=O)=O" under?
Result: low

Q: Which bin should I file "CNC(=O)c1cnc(NC(=O)C2CC2)cc1Nc1ccccc1S(C)(=O)=O" under?
Result: low

Q: Which bin should I file "CNC(=O)c1cnc(Nc2ccc(F)cn2)cc1Nc1ccccc1" under?
Result: high

Q: Which bin should I file "[2H]C([2H])([2H])NC(=O)c1cnc(Nc2ccc(F)cn2)cc1Nc1ccccc1S(C)(=O)=O" under?
Result: middle

Q: Which bin should I file "CNC(=O)c1cnc(Nc2ccc(F)cn2)cc1Nc1ccccc1SC" under?
Result: middle

Q: Which bin should I file "CNC(=O)c1cnc(Nc2cc(C)ccn2)cc1Nc1ccccc1S(C)(=O)=O" under?
Result: middle

Q: Which bin should I file "CNC(=O)c1cnc(Nc2ccc(N3CCOCC3)cn2)cc1Nc1ccccc1S(C)(=O)=O" under?
Result: low

Q: Which bin should I file "CNC(=O)c1cnc(Nc2ccc(F)cn2)cc1Nc1ccccc1S(C)(=O)=O" under?
Result: low

Q: Which bin should I file "[2H]C([2H])([2H])NC(=O)c1nnc(Nc2ccccn2)cc1Nc1ccccc1S(C)(=O)=O" under?
Result: high
